Test system: SNB-19 CNS
test-description: NCI-60 one-dose screen, 48 h (100 = growth as untreated, 0 = no growth, -100 = all killed)
particulars: 10 µM unless noted
Compounds without any hit were thinned out: in the full panel of roughly 83,000, 20% have a hit. Active and inactive are the calls of the source. Rule for the calls: active = growth percent below 10; inactive = the rest.
Recorded growth by entry

- compound: "COc1ccc(C2=NN(C(=O)c3cc(OC)c(OC)c(OC)c3)C(c3ccc(Cl)cc3)C2)cc1OC (configuration not stated)"
  growth: "29.1% (inactive)"
- compound: "COc1ccc2c(c1)[nH]c(=O)c1c3cccnc3cn21"
  growth: "32.7% (inactive)"
- compound: "O=[N+]([O-])c1ccc(Sc2cccc[n+]2[O-])c2nonc12"
  growth: "88.3% (inactive)"
- compound: "Cc1cc(NCc2cc(Nc3ccnc4cc(Cl)ccc34)ccc2F)nc(N2CCCC2)n1"
  growth: "28.9% (inactive)"
- compound: "c1csc(-c2c3ccc(=[N+]4CCCCC4)cc-3oc3cc(N4CCCCC4)ccc23)c1"
  growth: "-87.6% (active)"
- compound: "Nc1cc2c3c(cccc3c1)C(=O)N(CCN1CCCC1)C2=O"
  growth: "41.9% (inactive)"
- compound: "COc1cc(-c2nn(-c3ccccc3)cc2-c2ccnc(NCCNS(=O)(=O)c3ccc(Cl)cc3)n2)ccc1Cl"
  growth: "49.9% (inactive)"
- compound: "O=Cc1ccc(O)c2ncccc12"
  growth: "68.1% (inactive)"
- compound: "O=C(CCc1nnc(CN(c2ccccc2)c2ccccc2)o1)c1nc2ccccc2[nH]1"
  growth: "92.7% (inactive)"
- compound: "N[C@@H](CCCCNCC(=O)O)C(=O)O"
  growth: "99.2% (inactive)"
- compound: "COc1ccc(C(=O)/C=C/c2c(C(F)(F)F)nc3sccn23)cc1OC"
  growth: "33% (inactive)"
- compound: "CC(C)C(=O)Nc1n[nH]c2cc(-c3cccc(NS(=O)(=O)C4CC4)c3)ccc12"
  growth: "89.7% (inactive)"
- compound: "COc1ccc2c(c1)O/C(=C/c1ccc(OCC(=O)c3ccccc3)cc1)C2=O"
  growth: "108% (inactive)"
- compound: "CCCCCS(=O)(=O)Nc1ccc(C(=O)O)cc1"
  growth: "106% (inactive)"
- compound: "Cc1cccc(Cc2cnc(NC(=O)/C=C/c3ccco3)s2)c1"
  growth: "52.2% (inactive)"
- compound: "Cc1ccc(NCCN(C)C)c2c(=O)c3ccccc3sc12"
  growth: "20.2% (inactive)"
- compound: "O=C(N/N=C/c1ccncc1)c1ccc(C(F)(F)F)nc1Nc1cccc(C(F)(F)F)c1"
  growth: "36% (inactive)"
- compound: "Cc1ccc(S(=O)(=O)N/N=C\\c2cc(Cl)ccc2O)cc1"
  growth: "86.2% (inactive)"
- compound: "CC(CN1CCCCC1)C(=O)c1ccccc1 (configuration not stated)"
  growth: "101% (inactive)"
- compound: "COc1ccc2[nH]c(O)c(/C=c3/cc4c(c(-c5ccc(F)c(OC)c5)n3)=Nc3ccccc3-4)c2c1"
  growth: "47.6% (inactive)"
- compound: "O=C(/C=C/c1ccc(Cl)nc1)c1ccc(Cl)cc1Cl"
  growth: "88.3% (inactive)"
- compound: "CC1=CN2C(=O)C3C4=C(CCCC4)SC3N=C2CN1c1c(C)cccc1C (configuration not stated)"
  growth: "104% (inactive)"

* * *

Tested on: CCRF-CEM leukemia
test-description: NCI-60 one-dose screen, 48 h (100 = growth as untreated, 0 = no growth, -100 = all killed)
particulars: 10 µM unless noted
Compounds without any hit were thinned out: in the full panel of roughly 83,000, 20% have a hit.
Recorded growth by entry
measured-property: growth (%)

- compound: "Cc1ccc(Cl)cc1NC(=O)c1cc2ccccc2cc1O"
  target-entity: "CCRF-CEM leukemia"
  result-value: -22.3
- compound: "NC(=S)Nc1cccc(O)c1"
  target-entity: "CCRF-CEM leukemia"
  result-value: 103
- compound: "C#CCOc1nc(C)cc(C)c1C#N"
  target-entity: "CCRF-CEM leukemia"
  result-value: 109
- compound: "CN1CCN(CCCOc2ccc3nc(Nc4ccc(F)c(F)c4)ccc3c2)CC1"
  target-entity: "CCRF-CEM leukemia"
  result-value: 17.2
- compound: "COc1cccc(C(=O)NCCNc2cc(-c3cn(-c4ccccc4)nc3-c3cccc(OC)c3)ccn2)c1"
  target-entity: "CCRF-CEM leukemia"
  result-value: 25.6
- compound: "CCCCCCN(CCCCCC)c1ccc(/C=C2/SC(=O)N(c3nc(N4CCCC4)nc(N4CCCC4)n3)C2=O)c(C)c1"
  target-entity: "CCRF-CEM leukemia"
  result-value: 54.1
- compound: "O=C1/C(=C\\c2cccnc2)SC(=S)N1CCc1ccc(O)cc1"
  target-entity: "CCRF-CEM leukemia"
  result-value: 23.9
- compound: "CCOc1c(C#N)nnc2c(C#N)c(NC(=O)c3ccccc3)nn12"
  target-entity: "CCRF-CEM leukemia"
  result-value: 102
- compound: "COc1ccc(CNC(=O)C(O)C(Cc2ccccc2)NC(=O)c2[nH]c3ccccc3c(=O)c2C)cc1OC (stereo not given)"
  target-entity: "CCRF-CEM leukemia"
  result-value: 108
- compound: "O=C1/C(=C/c2ccccc2)CCc2nc3ccccc3c(/C=C/c3ccc(Cl)cc3)c21"
  target-entity: "CCRF-CEM leukemia"
  result-value: 84.1

* * *

Recorded growth by entry
Tested on: DU-145 prostate
test-description: NCI-60 one-dose screen, 48 h (100 = growth as untreated, 0 = no growth, -100 = all killed)
particulars: 10 µM unless noted
Compounds without any hit were thinned out: in the full panel of roughly 83,000, 20% have a hit.
measured-property: growth (%)

- compound: "N#Cc1nc2c(S(=O)(=O)c3ccc(Cl)cc3)c(N)n(Nc3cccc(Cl)c3)c2nc1C#N"
  measured-property: "growth"
  unit-of-measurement: "%"
  result-value: 16.2
- compound: "COc1ccc(/C=C/c2c(C(=O)/C=C/c3cccs3)c(C)nc3ccccc23)cc1"
  measured-property: "growth"
  unit-of-measurement: "%"
  result-value: 82.7
- compound: "Clc1cc(Cl)cc(Nc2ccc3cc(OCCCN4CCOCC4)ccc3n2)c1"
  measured-property: "growth"
  unit-of-measurement: "%"
  result-value: 40.6
- compound: "Cc1nc2ccccc2n1CC1NC(=O)NC1=O (stereo not given)"
  measured-property: "growth"
  unit-of-measurement: "%"
  result-value: 110
- compound: "CCCCCCCCCCCCCCCCCC1=NCCN1CCOC1=C(Cl)C(=O)c2ccccc2C1=O"
  measured-property: "growth"
  unit-of-measurement: "%"
  result-value: 109
- compound: "O=C(/C=C/c1ccco1)c1ccc(Nc2nc(Nc3ccc(F)cc3)nc(Nc3ccc(Cl)cc3)n2)cc1"
  measured-property: "growth"
  unit-of-measurement: "%"
  result-value: 77
- compound: "CCN1C(=O)N(CC)C2Nn3c(s/c(=C\\c4cccc([N+](=O)[O-])c4)c3=O)=NC21 (stereo not given)"
  measured-property: "growth"
  unit-of-measurement: "%"
  result-value: 30.5
- compound: "CCOC(=O)/C=C/c1cc2cc(-c3csc4ccccc34)ccc2[nH]1"
  measured-property: "growth"
  unit-of-measurement: "%"
  result-value: 89.5
- compound: "CC1(C)CC(=O)CC2(C1)N=C(N)Nc1nc3ccccc3n12 (stereo not given)"
  measured-property: "growth"
  unit-of-measurement: "%"
  result-value: 115
- compound: "S=C(Cc1ccc2c(c1)CCCC2)N1CCOCC1"
  measured-property: "growth"
  unit-of-measurement: "%"
  result-value: 104
- compound: "COc1ccc2c(c1)C(=O)/C(=C/c1ccc(OCC(=O)Nc3nccs3)cc1)O2"
  measured-property: "growth"
  unit-of-measurement: "%"
  result-value: -37.4
- compound: "N#C/C(=C\\c1ccc2c(c1)OCO2)n1nnc2cc(F)c(F)cc21"
  measured-property: "growth"
  unit-of-measurement: "%"
  result-value: 36.7
- compound: "COC1=CC(=O)C[C@@H](C)[C@]12Oc1c(Cl)c(OC)cc(OC)c1C2=O"
  measured-property: "growth"
  unit-of-measurement: "%"
  result-value: 105
- compound: "COc1cc(OC)cc(C2CC(=O)Nc3c2c(C)nn3-c2nc3ccccc3[nH]2)c1 (stereo not given)"
  measured-property: "growth"
  unit-of-measurement: "%"
  result-value: 53.3
- compound: "COc1cccc(-c2nn(-c3ccccc3)cc2-c2ccnc(NCCNC(=O)Nc3ccc(Cl)c(Cl)c3)c2)c1"
  measured-property: "growth"
  unit-of-measurement: "%"
  result-value: 2.24
- compound: "Fc1cnc(NC2CC2)nc1-c1cnc2ccc(N3CCOCC3)cn12"
  measured-property: "growth"
  unit-of-measurement: "%"
  result-value: 7.39
- compound: "CCCCCCN(CCCCCC)c1ccc(/C=C2/SC(=O)N(c3nc(N4CCCC4)nc(N4CCCC4)n3)C2=O)c(C)c1"
  measured-property: "growth"
  unit-of-measurement: "%"
  result-value: 77.3
- compound: "CCCCCCCCCCN(CCCCCCCCCC)CC(=O)c1ccc2cc(Br)c3ccccc3c2c1"
  measured-property: "growth"
  unit-of-measurement: "%"
  result-value: 71.7
- compound: "O=C(/C=C/c1c(Cl)nc2sccn12)c1ccc(F)c(F)c1"
  measured-property: "growth"
  unit-of-measurement: "%"
  result-value: 96.1
- compound: "Cc1ccc(C(=O)CSc2nc(-c3ccc(Br)cc3)c(C#N)c(=O)[nH]2)cc1"
  measured-property: "growth"
  unit-of-measurement: "%"
  result-value: 104
